- system.name: T1, recombinant protein CDH6 (UniProt P55285 54-615)
- T1 construct: also called CDH6 recombinant protein; CDH6 antigen
- T1 sequence (looked up): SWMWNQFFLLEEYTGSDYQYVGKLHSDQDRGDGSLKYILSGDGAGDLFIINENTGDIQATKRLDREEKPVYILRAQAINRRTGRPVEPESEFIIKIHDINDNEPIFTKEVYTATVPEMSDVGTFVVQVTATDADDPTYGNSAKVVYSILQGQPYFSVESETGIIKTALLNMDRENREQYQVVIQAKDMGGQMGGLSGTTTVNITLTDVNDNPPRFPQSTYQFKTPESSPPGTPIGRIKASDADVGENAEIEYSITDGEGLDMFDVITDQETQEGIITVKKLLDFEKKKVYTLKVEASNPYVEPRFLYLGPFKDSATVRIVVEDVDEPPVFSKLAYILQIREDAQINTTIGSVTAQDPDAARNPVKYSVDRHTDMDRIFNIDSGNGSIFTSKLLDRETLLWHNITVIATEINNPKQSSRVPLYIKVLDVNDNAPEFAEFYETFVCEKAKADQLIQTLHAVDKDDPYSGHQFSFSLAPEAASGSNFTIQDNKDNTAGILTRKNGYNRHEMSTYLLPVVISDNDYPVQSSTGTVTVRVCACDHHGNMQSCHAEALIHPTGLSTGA
- assay.protocol: ELISA, CDH6 coated; antibody 50 ng/mL
quantity.name: OD450

Some binders with recorded OD450:
CL069066 antibody (antibody, V domains shown, Mouse monoclonal antibody from hybridoma, purified from ascites with Protein A/G; also called #4; No. 4) VH: EVKLLESGGGLVQPGGSLKLSCAASGFDFSRYWMTWVRQAPGKGLEWIGEINPDSSTINYTPSLKDKFIISRDNAKNTLYLQMNKVTSEDTALYYCTRRPHYYGYFDSWGQGTTLTVSS VL: DIVLTQSPASLAVSLGQRATISCRASESVEYYGTTLMQWYQQKPGQPPQLLIYAGSNVESGVPARFSGSGSGTEFSLNIHPVEEDDIGMYFCQQSRKVPWTFGGGTKLEIK ... 2.11 OD450
CL069463 antibody (antibody, V domains shown, Mouse monoclonal antibody from hybridoma, purified from ascites with Protein A/G; also called #13; No. 13) VH: EVQLVESGGGLVQPKGSLKLSCAASGFTFNTYALTWVRQAPGKGLEWVGRIKSKNKDYETYYADSVKDRFTISRNDSQSLLYLQMNNLKTEDTAIYYCVRQNWNYFDYWGQGTTLTVSS VL: DIQMTQSPASLAASVGETVTITCRASENIYYSLAWYQQRQGKSPQLLIYNANSLKDGVPSRFSGSGSGTQYSMKINSMQPEDTATYFCQQAYDVPPTFGGGTKLEIK ... 2.32 OD450
CL069439 antibody (antibody, V domains shown, Mouse monoclonal antibody from hybridoma, purified from ascites with Protein A/G; also called #16; No. 16) VH: EVQLQQSGTELVRTGASVKISCKASGYSFTGYYIHWIKQSHGESLEWIGYISCFNGDTSYNQNFKDRATFNVDTSSSTAYMQFISLTSEDSAVYYCVRGRYGNFNYFDYWGQGTTLTVSS VL: DIVLTQSPASLAVSLGQRATISCRASESVEFYGTSLMQWFQQKPGHPPQLLIYATSNVDSGVPARFSASGSGTDFSLNIHPVEEADIAMYFCQQSRRIPWTFGGGTKLEIK ... 3.89 OD450

Kindly consider the entry below.
What value of OD450 has been recorded for this entry: CL069707 antibody (antibody, V domains shown, Mouse monoclonal antibody from hybridoma, purified from ascites with Protein A/G; also called #23; No. 23) VH: EVHLVESGGGLVQPKGSLKLSCVASGFTFTTYAMNWVRQAPGKGLEWVARIRIKNNNYATYYADSVTDRFTISRDDSQSMLYLQMNNLKTEDTAMYYCVRPDYGNYGLAYWGQGTLVTVSA VL: EIVLTQSPTTMAASPGEKITITCSASSSISSHYLHWYQQKPGFSPKLLIYRSFYLASGVPLRFTGSGSGTSYSLTIGTMEAEDVATYYCQQDIVPLTFGAGTKLELK
1.33 OD450

The reported measurements were obtained from patent US20250090677A1.
